Target: UniProtKB P03366
Assay: biochemical
Type: biochemical
Details: Table 11; WT RT; read-out: IC50
pIC50: −log10 of the molar value.
readout.type: pIC50

# smi, readout.type, result.value
rows = [
    ("Cc1cccc2c1nc(CO)n2Cc1c(F)cccc1F", "pIC50", 5.73),
]

###

Tested on: HIV-1 isolate K101E
Experiment: Cytopathic cell killing assay, MT-4 cells, isolate K101E
Format: cell-based
Details: Table 10; values in μM; read-out: EC50, isolate K101E
readout.type: EC50 (µM)

# molecule, readout.type, display.unit, result.value
records = [
    ("[N-]=[N+]=NCc1cccc2c1nc(-c1c(F)cccc1F)n2Cc1c(F)cccc1F [Compound 70]", "EC50", "µM", 0.6),
]

###

List of EC50 values.
Test system: HIV-1 isolate Y188H
Experiment: Cytopathic cell killing assay, isolate Y188H
Assay type: cell-based
Details: Human immunodeficiency virus 1, read-out: EC50, isolate Y188H

# smi, system.name, display.unit, relational.operator, EC50
rows = [
    ("O=[N+]([O-])c1cccc2c1nc(-c1c(F)cccc1F)n2Cc1c(F)cccc1F", "HIV-1 isolate Y188H", "µM", ">", 50),
    ("COc1cccc2c1nc(-c1c(F)cccc1F)n2Cc1c(F)cccc1F", "HIV-1 isolate Y188H", "µM", "=", 0.26),
    ("Nc1cccc2c1nc(-c1c(F)cccc1F)n2Cc1c(F)cccc1F", "HIV-1 isolate Y188H", "µM", ">", 50),
    ("CCc1cccc2c1nc(-c1c(F)cccc1F)n2Cc1c(F)cccc1F", "HIV-1 isolate Y188H", "µM", "=", 13.2),
]

###

System: HIV-1 NL4-3 (WT)
Assay: Cytopathic cell killing assay, MT-4 cells, isolate NL4-3 (WT)
Type: cell-based
Settings: Human immunodeficiency virus 1, NL43, MT4, read-out: EC50, isolate NL4-3 (WT)
readout.type: EC50 (nM)

# molecule, display.unit, result.value
measured = [
    ("CCc1cccc2c1nc(-c1c(F)cccc1F)n2Cc1c(F)cccc1F [Compound 4011]", "nM", 900),
]

###

List of EC50 values.
Test system: HIV-1 isolate A98G
Assay: Cytopathic cell killing assay, MT-4 cells, isolate A98G
Format: cell-based
Details: Human immunodeficiency virus 1, MT4, read-out: EC50, isolate A98G, Table 8; MT-4 cells
readout.type: EC50 (nM)

# smi, readout.type, display.unit, result.value
rows = [
    ("COc1cccc2c1nc(-c1c(F)cccc1F)n2Cc1c(F)cccc1F", "EC50", "nM", 300),
    ("CC(=O)Nc1cccc2c1nc(-c1c(F)cccc1F)n2Cc1c(F)cccc1F", "EC50", "nM", 4300),
    ("CC(=O)N(C)c1cccc2c1nc(-c1c(F)cccc1F)n2Cc1c(F)cccc1F", "EC50", "nM", 100),
    ("Nc1cccc2c1nc(-c1c(F)cccc1F)n2Cc1c(F)cccc1F", "EC50", "nM", 1500),
]

###

Test system: HIV-1 isolate K103N
Assay: Cytopathic cell killing assay, MT-4 cells, isolate K103N
Type: cell-based
Conditions: Table 10; values in μM; read-out: EC50, isolate K103N
readout.type: EC50 (µM)

# smi, result.value
rows = [
    ("[N-]=[N+]=NCc1cccc2c1nc(-c1c(F)cccc1F)n2Cc1c(F)cccc1F", 1.48),
]

###

System: HIV-1 isolate Y188C
Assay: Cytopathic cell killing assay, MT-4 cells, isolate Y188C
Type: cell-based
Details: Human immunodeficiency virus 1, MT4, read-out: EC50, isolate Y188C, Table 4; MT-4 cells
readout.type: EC50 (nM)

# smi, result.value
rows = [
    ("Cc1cccc2c1nc(-c1c(F)cccc1F)n2Cc1c(F)cccc1F", 2300),
]

###

Target: HIV-1 WT RT (Human immunodeficiency virus type 1 group M subtype B)
Assay: biochemical
Assay type: biochemical
Settings: read-out: IC50

# compound, IC50 / µM
records = [
    ("CN(C)c1cccc2c1nc(-c1c(F)cccc1F)n2Cc1c(F)cccc1F [Compound 3700]", 40),
]

###

Molecular target: HIV-1 WT RT (Human immunodeficiency virus type 1 group M subtype B)
Assay: biochemical
Assay type: biochemical
List of IC50 values.

# compound, system.name, display.unit, IC50
measured = [
    ("CNc1cccc2c1nc(-c1c(F)cccc1F)n2Cc1c(F)cccc1F [Compound 5012]", "HIV-1 WT RT (Human immunodeficiency virus type 1 group M subtype B)", "µM", 4.94),
    ("CC(=O)Nc1cccc2c1nc(-c1c(F)cccc1F)n2Cc1c(F)cccc1F [Compound 3600]", "HIV-1 WT RT (Human immunodeficiency virus type 1 group M subtype B)", "µM", 54.7),
    ("Nc1cccc2c1nc(-c1c(F)cccc1F)n2Cc1c(F)cccc1F [Compound 3300]", "HIV-1 WT RT (Human immunodeficiency virus type 1 group M subtype B)", "µM", 0.28),
    ("CC(=O)N(C)c1cccc2c1nc(-c1c(F)cccc1F)n2Cc1c(F)cccc1F [Compound 5011]", "HIV-1 WT RT (Human immunodeficiency virus type 1 group M subtype B)", "µM", 0.32),
]

###

Test system: HIV-1 isolate K101E
Experiment: Cytopathic cell killing assay, MT-4 cells, isolate K101E
Format: cell-based
Conditions: Human immunodeficiency virus 1, MT4, read-out: EC50, isolate K101E, Table 4; MT-4 cells

# smi, EC50 [µM]
measured = [
    ("Cc1cccc2c1nc(-c1c(F)cccc1F)n2Cc1c(F)cccc1F", 16.7),
]

###

List of melting point values.
readout.type: melting point

# compound, result.value
records = [
    ("Fc1cccc(F)c1-c1nc2ccccc2n1Cc1ccccc1 [Compound 28]", "124 °C"),
    ("Fc1cccc(F)c1Cn1c(-c2c(F)cccc2F)nc2cc(Br)ccc21 [Compound 38]", "155 to 156 °C"),
    ("O=S(=O)(c1ccccc1)n1c(-c2c(F)cccc2F)nc2ccccc21", "104 to 106 °C"),
    ("Cc1ccc2c(nc(-c3c(F)cccc3F)n2Cc2c(F)cccc2F)c1C", "176 to 177 °C"),
    ("Cc1cccc2c1nc(-c1c(F)cccc1F)n2Cc1c(F)c(F)c(F)c(F)c1F", "155 to 156 °C"),
    ("Fc1cccc(F)c1Cn1c(-c2ccccc2)nc2ccccc21", "163 °C"),
    ("Cc1cccc2c1nc(-c1cccc3ccccc13)n2Cc1c(F)cccc1F [Compound 37]", "121 to 123 °C"),
    ("Cc1nc2ccccc2n1Cc1c(F)cccc1F [Compound 35]", "99 °C"),
    ("O=Cc1cccc2c1nc(-c1c(F)cccc1F)n2Cc1c(F)cccc1F [Compound 68]", "151 to 153 °C"),
    ("Cc1cccc2c1nc(-c1ccncc1)n2Cc1c(F)cccc1F", "171 to 172 °C"),
    ("CC(C)=CCn1c(-c2c(F)cccc2F)nc2c(C)cccc21 [(X = CH3) R = prenyl]", "78 to 79 °C"),
    ("O=[N+]([O-])c1ccc2c(c1)nc(-c1c(F)cccc1F)n2Cc1c(F)cccc1F", "168 to 169 °C"),
    ("COc1cccc2c1nc(-c1c(F)cccc1F)n2Cc1c(F)cccc1F [Compound 5006]", "154 to 155 °C"),
    ("Cc1ccc2c(c1)nc(-c1c(F)cccc1F)n2Cc1c(F)cccc1F", "147 to 149 °C"),
    ("CN(C)c1cccc2c1nc(-c1c(F)cccc1F)n2Cc1c(F)cccc1F [Compound 3700]", "155 to 156 °C"),
    ("Cc1cccc2c1nc(-c1c(F)cccc1F)n2Cc1c(F)cccc1F [Compound 33]", "182 to 186 °C"),
    ("COc1cccc2c1nc(C1CC1)n2Cc1c(F)cccc1F", "136 to 139 °C"),
    ("O=[N+]([O-])c1cccc2c1nc(-c1c(F)cccc1F)n2Cc1c(F)cccc1F [Compound 3100]", "169 °C"),
    ("Cc1cccc2c1nc(-c1c(F)cccc1F)n2Cc1cccnc1", "131 to 132 °C"),
    ("Cc1ccc2nc(-c3c(F)cccc3F)n(Cc3c(F)cccc3F)c2c1", "172 to 173 °C"),
    ("C=C(C)c1cccc2c1nc(-c1c(F)cccc1F)n2Cc1c(F)cccc1F [Compound 66]", "156 to 158 °C"),
    ("CC(=O)Nc1cccc2c1nc(-c1c(F)cccc1F)n2Cc1c(F)cccc1F [Compound 3600]", "194 to 195 °C"),
    ("Fc1cccc(F)c1COCc1nc2ccccc2n1Cc1c(F)cccc1F [Compound 32]", "109 °C"),
    ("Cc1cccc2c1nc(-c1cccnc1)n2Cc1c(F)cccc1F", "186 to 188 °C"),
    ("COC(=O)c1cccc2c1nc(-c1c(F)cccc1F)n2Cc1c(F)cccc1F", "184 to 186 °C"),
    ("CC(=O)N(C)c1cccc2c1nc(-c1c(F)cccc1F)n2Cc1c(F)cccc1F [Compound 5011]", "155 to 156 °C"),
    ("CCc1cccc2c1nc(-c1c(F)cccc1F)n2Cc1c(F)cccc1F [Compound 4011]", "165 to 166 °C"),
    ("Fc1cccc(F)c1Cn1c(-c2c(F)cccc2F)nc2c(Br)cccc21 [Compound 3400]", "147 to 148 °C"),
    ("Cc1cc(C)c2nc(-c3c(F)cccc3F)n(Cc3c(F)cccc3F)c2c1", "153 to 154 °C"),
    ("Fc1cccc(F)c1Cn1c(-c2c(F)cccc2F)nc2c(CCl)cccc21 [Compound 69]", "143 to 144 °C"),
    ("Cc1cccc2c1nc(-c1ccc3ccccc3c1)n2Cc1c(F)cccc1F", "175 to 176 °C"),
    ("Cc1cccc2c1nc(-c1c(F)cccc1F)n2Cc1c(Cl)cccc1Cl [Compound 30]", "202 to 203 °C"),
    ("NC(=O)c1cccc2c1nc(-c1c(F)cccc1F)n2Cc1c(F)cccc1F [Compound 62]", "260 to 261 °C"),
    ("Fc1cccc(F)c1Cn1c(-c2c(F)cccc2F)nc2ccc(Cl)cc21", "152 to 153 °C"),
    ("Cc1cccc2c1nc(-c1c(F)cccc1F)n2Cc1ccccc1 [Compound 29]", "112 to 117 °C"),
    ("Oc1cccc2c1nc(-c1c(F)cccc1F)n2Cc1c(F)cccc1F [Compound 52]", "257 to 259 °C"),
    ("Nc1cccc2c1nc(-c1c(F)cccc1F)n2Cc1c(F)cccc1F [Compound 3300]", "168 to 170 °C"),
    ("Cc1cccc2c1nc(C(C)C)n2Cc1c(F)cccc1F [Compound 34]", "151 to 153 °C"),
    ("Cc1ccccc1-c1nc2ccccc2n1Cc1c(F)cccc1F [Compound 36]", "139 °C"),
]
